Provenance of the data: paper PMC3743770

assay: Mouse brain pharmacokinetics; type: in vivo; settings: C57BL/6, mouse, brain, ip; read-out: brain T1/2 (converted)
PROPERTY_NAME: half-life (h)
Supply the numeric figure in h, leaving out any unit text.

COMPOUND	RESULT
O=C(CCCCCCC(=O)Nc1ccccc1)NO [SAHA, suberoylanilide hydroxamic acid]	0.44

Next compound, please.
Supply recorded half-life for CC(=O)Nc1ccc(C(=O)Nc2cc(-c3cccs3)ccc2N)cc1 here.
6.44

====

assay: Mouse brain pharmacokinetics; format: in vivo; settings: C57BL/6, mouse, brain, ip, 45 mg/kg; read-out: brain maximum concentration (Cmax)
PROPERTY_NAME: Cmax (nM)
Respond numerically; units are nM and should not be typed.

Given the molecule CC(=O)Nc1ccc(C(=O)Nc2cc(-c3cccs3)ccc2N)cc1 , write its reported Cmax.
830

====

target: HDAC8 (Homo sapiens, UniProt Q9BY41); experiment: HDAC inhibition assay, recombinant enzyme, Caliper EZ reader
Sequence (Q9BY41 whole entry): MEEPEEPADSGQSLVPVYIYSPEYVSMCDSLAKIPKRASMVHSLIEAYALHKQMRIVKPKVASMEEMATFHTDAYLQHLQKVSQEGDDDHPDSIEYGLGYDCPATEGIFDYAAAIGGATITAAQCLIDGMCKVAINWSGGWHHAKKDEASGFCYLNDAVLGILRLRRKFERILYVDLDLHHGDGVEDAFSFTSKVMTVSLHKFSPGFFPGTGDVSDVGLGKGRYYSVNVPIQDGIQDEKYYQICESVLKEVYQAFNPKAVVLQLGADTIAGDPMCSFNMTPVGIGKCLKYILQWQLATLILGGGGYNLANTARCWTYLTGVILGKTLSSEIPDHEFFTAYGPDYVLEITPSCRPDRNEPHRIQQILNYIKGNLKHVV
PROPERTY_NAME: IC50

Report value: IC50, system: HDAC8 (Homo sapiens, UniProt Q9BY41), compound: CC(=O)Nc1ccc(C(=O)Nc2cc(-c3cccs3)ccc2N)cc1
> 30 µM

====

tested on: histone H4K12 acetylation in cultured primary mouse neuronal cells; assay: Mouse primary neuronal histone acetylation assay; settings: Neuron, 24 h, read-out: EC50 for H4K12 acetylation
PROPERTY_NAME: EC50 (µM)
Write down the numeric answer in µM and omit the unit.

Recall and state the measured EC50 for CC(=O)Nc1ccc(C(=O)Nc2cc(-c3cccs3)ccc2N)cc1 [Cpd-60] .
7.2

====

target: HDAC9 (Homo sapiens, UniProt Q9UKV0); assay: HDAC inhibition assay, recombinant enzyme, Caliper EZ reader
Sequence (Q9UKV0 whole entry): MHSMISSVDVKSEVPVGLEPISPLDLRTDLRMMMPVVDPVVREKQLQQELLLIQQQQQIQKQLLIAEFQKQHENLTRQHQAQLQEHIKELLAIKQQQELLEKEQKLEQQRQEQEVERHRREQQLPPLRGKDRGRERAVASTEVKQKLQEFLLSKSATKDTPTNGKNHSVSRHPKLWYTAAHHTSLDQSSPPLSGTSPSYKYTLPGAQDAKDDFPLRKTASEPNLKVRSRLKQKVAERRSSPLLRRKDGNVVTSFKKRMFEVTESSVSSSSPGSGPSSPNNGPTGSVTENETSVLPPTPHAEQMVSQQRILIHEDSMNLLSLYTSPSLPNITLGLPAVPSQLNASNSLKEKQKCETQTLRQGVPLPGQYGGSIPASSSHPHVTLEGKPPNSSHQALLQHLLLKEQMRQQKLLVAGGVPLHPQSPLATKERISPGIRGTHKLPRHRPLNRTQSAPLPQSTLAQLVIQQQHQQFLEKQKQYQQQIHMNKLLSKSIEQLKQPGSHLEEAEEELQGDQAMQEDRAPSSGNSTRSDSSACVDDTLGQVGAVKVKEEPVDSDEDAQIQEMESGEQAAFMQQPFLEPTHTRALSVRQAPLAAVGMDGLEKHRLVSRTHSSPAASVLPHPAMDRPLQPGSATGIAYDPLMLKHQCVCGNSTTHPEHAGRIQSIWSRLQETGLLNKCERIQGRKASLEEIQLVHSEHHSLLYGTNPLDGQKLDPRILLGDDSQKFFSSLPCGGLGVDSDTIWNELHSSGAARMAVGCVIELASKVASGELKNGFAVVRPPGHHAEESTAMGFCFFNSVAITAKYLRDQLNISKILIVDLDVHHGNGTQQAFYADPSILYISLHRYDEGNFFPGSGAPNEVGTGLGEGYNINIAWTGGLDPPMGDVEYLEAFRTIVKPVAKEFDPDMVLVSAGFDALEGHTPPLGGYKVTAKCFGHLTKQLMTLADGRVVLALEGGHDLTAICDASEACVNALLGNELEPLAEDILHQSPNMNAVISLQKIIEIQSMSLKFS
pIC50: −log10 of the molar value.
PROPERTY_NAME: pIC50

Retrieve pIC50 measured for CC(=O)Nc1ccc(C(=O)Nc2cc(-c3cccs3)ccc2N)cc1 [Cpd-60] and print it.
< 4.52

====

biological target: HDAC4 (Homo sapiens, UniProt P56524)
Sequence (P56524 whole entry): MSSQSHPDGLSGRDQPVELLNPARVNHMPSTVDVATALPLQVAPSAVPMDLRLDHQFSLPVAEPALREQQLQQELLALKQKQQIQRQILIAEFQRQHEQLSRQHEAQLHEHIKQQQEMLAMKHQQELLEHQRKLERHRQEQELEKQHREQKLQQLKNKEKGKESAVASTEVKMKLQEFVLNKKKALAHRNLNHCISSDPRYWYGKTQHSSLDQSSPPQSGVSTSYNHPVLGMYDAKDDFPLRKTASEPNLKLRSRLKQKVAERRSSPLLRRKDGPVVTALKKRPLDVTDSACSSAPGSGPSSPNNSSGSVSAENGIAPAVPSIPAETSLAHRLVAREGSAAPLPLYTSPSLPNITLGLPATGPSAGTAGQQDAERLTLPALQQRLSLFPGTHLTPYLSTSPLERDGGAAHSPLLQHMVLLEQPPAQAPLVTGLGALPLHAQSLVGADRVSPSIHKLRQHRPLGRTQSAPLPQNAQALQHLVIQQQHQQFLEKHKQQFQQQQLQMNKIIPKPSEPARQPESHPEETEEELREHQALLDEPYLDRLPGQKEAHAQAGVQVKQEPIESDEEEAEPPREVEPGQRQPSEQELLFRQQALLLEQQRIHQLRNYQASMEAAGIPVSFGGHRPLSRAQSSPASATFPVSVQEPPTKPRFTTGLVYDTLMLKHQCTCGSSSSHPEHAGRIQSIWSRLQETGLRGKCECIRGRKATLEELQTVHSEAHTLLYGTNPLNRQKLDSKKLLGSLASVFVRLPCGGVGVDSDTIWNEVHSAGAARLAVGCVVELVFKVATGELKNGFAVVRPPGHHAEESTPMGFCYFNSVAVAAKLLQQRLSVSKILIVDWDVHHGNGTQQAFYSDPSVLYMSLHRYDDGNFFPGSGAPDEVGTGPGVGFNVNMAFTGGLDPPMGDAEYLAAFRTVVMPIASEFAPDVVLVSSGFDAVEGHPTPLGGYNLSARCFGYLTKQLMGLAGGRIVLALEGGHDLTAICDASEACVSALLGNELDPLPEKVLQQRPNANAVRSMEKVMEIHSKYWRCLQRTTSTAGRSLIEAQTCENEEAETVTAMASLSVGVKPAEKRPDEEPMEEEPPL
pIC50: −log10 of the molar value.
PROPERTY_NAME: pIC50

Give the observed pIC50 of CC(=O)Nc1ccc(C(=O)Nc2cc(-c3cccs3)ccc2N)cc1 for HDAC4 (Homo sapiens, UniProt P56524).
< 4.52

====

target: HDAC5 (Homo sapiens, UniProt Q9UQL6); test: HDAC inhibition assay, recombinant enzyme, Caliper EZ reader
Sequence (Q9UQL6 whole entry): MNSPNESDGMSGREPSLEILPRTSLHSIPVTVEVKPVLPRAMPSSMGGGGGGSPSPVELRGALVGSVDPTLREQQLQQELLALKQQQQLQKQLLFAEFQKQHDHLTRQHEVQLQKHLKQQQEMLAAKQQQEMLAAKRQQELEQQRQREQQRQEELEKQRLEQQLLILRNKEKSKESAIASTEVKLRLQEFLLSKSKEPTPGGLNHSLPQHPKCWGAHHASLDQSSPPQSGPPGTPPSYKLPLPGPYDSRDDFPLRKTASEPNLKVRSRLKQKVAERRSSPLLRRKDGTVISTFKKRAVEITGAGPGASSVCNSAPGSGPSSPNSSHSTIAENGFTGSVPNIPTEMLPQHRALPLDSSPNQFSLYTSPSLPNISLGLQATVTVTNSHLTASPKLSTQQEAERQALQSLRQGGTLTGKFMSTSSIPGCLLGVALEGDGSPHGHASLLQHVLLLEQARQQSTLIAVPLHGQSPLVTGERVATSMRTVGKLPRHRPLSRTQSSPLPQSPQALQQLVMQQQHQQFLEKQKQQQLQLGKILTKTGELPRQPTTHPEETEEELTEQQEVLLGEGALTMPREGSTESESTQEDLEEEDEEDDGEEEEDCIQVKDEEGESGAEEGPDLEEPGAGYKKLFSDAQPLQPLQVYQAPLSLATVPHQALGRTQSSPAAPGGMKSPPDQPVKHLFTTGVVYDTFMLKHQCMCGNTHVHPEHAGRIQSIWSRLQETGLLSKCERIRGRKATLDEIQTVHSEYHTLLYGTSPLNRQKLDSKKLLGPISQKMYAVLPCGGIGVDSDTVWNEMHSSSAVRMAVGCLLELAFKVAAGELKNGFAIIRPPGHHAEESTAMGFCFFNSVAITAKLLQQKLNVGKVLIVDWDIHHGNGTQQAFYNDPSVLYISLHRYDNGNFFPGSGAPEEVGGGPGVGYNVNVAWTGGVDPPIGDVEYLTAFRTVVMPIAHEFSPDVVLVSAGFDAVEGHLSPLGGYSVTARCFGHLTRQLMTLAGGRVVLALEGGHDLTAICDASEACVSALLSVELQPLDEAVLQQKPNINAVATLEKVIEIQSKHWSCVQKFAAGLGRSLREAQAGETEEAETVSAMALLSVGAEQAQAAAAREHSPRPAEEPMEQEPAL
PROPERTY_NAME: IC50

In one line, give reported IC50 of the entry CC(=O)Nc1ccc(C(=O)Nc2cc(-c3cccs3)ccc2N)cc1 .
> 30 µM

====

test: Mouse brain pharmacokinetics; assay type: in vivo; conditions: C57BL/6, mouse, brain, intraperitoneal, 45 mg/kg; systemic treatment; read-out: brain concentration maintained for at least 8 hr
PROPERTY_NAME: concentration at 8 hr

Kindly indicate its recorded concentration at 8 hr. Item: CC(=O)Nc1ccc(C(=O)Nc2cc(-c3cccs3)ccc2N)cc1
> 100 nM
